Below is a list of entries, each paired with its recorded Heart/liver ratio in biodistribution value.
Assay: Biodistribution of the 99mTc(N) heterocomplexes in rats (organ uptake, heart accumulation, heart/lung and heart/liver ratios)
Type: in vivo, female Sprague-Dawley rats
Settings: rats, 10 min
Please give only the number in your answer, with no unit.

CCOCCN1CC[P](CCCOC)(CCCOC)[99Tc+]2(#[N])([S]C(N(CCOCC)C(C)C)=[S]2)[P](CCCOC)(CCCOC)CC1 [[^99mTc(N) (PNP5) (ISOET)^+]] ... 1.90
COCCC[P]1(CCCOC)CCN(CCOC)CC[P](CCCOC)(CCCOC)[99Tc+]12(#[N])[S]C(N(CCOC)CCOC)=[S]2 [[^99m−Tc(N) (PNP3) (DPODC)^+]] ... 0.68
CCOCCC[P]1(CCCOCC)CCN(CCOCC)CC[P](CCCOCC)(CCCOCC)[99Tc+]12(#[N])[S]C(N(CCOCC)CCOCC)=[S]2 [[^99mTc(N) (PNP6) (DBODC)^+]] ... 0.18

// Heart/liver ratio in biodistribution lookup, key: CCOCCN1CC[P](CCCOC)(CCCOC)[99Tc+]2(#[N])([S]C(N(CCOCC)CCOCC)=[S]2)[P](CCCOC)(CCCOC)CC1 [[^99mTc(N) (PNP5) (DBODC)^+]] 2.29

Same again, this time with CCOCCN(CCOCC)C1=[S][99Tc+]2(#[N])([S]1)[P](CCCOC)(CCCOC)CCN(CCOC)CC[P]2(CCCOC)CCCOC [[^99m−Tc(N) (PNP3) (DBODC)^+]] 2.55
